The reader will find reported Mono values listed item by item below.
# Species on record: Rattus norvegicus
# PROTOCOL TEXT: Open TG-GATES - Regimen: Single
# Type: toxicity, organism-based, Sprague-Dawley
# Parameters: regimen Single, gender Male, age 6 weeks
# CONDITION SET: in vivo, po, 0 mg/kg, 9 h, tissue Blood, route gavage, dose level Control
A complete answer gives the number and then names the unit.

These recorded examples may help you get a feel for the data.
Prompt: Could you please provide reported Mono for Clc1c(Cl)c(Cl)c(Cl)c(Cl)c1Cl [PERCHLOROBENZENE] ? Thanks!
Response: 2.6%

Prompt: Assign Mono to the following record: C#C[C@]1(O)CC[C@H]2[C@@H]3CCC4=Cc5oncc5C[C@]4(C)[C@H]3CC[C@@]21C [DANAZOL]
Response: 2%

Prompt: Give the reported value of Mono for this record: CC(CN1c2ccccc2Sc2ccccc21)N(C)C (stereo not given) [PROMETHAZINE]
Response: 3%

Prompt: Given the compound CN(C)[C@@H]1C(O)=C(C(N)=O)C(=O)[C@@]2(O)C(O)=C3C(=O)c4c(O)cccc4[C@@](C)(O)[C@H]3C[C@@H]12 [TETRACYCLINE] , write its reported Mono.
Response: 6.2%

More entries:
Prompt: Respond only with Mono recorded for `CCOC(=O)[C@H](CCc1ccccc1)N[C@@H](C)C(=O)N1CCC[C@H]1C(=O)O`
Response: 5%

---

# Species: Rattus norvegicus
# PROTOCOL TEXT: Open TG-GATES - Regimen: Daily Repeat
# Assay type: toxicity, organism-based, Sprague-Dawley
# Set-up: regimen Daily Repeat, gender Male, age 6 weeks
# CONDITION SET: in vivo, po, 0 mg/kg, […], tissue Blood, route gavage, dose level Control, time 14 day
Ht values, listed per item
Reply numerically in %, unit not repeated.

Prompt: Give the reported Ht for this compound. C1CCC(C(CC2CCCCN2)C2CCCCC2)CC1 (centres undefined) [PERHEXILINE]
Response: 42.7

Prompt: Find the measured Ht of `CCOC(=O)[C@H](CCc1ccccc1)N[C@@H](C)C(=O)N1CCC[C@H]1C(=O)O` and report it.
Response: 41.7

Prompt: Specify Ht for CC(CN1c2ccccc2Sc2ccccc21)N(C)C (centres undefined) [PROMETHAZINE] and stop.
Response: 41.4

Prompt: Dear colleague, please send me the reported Ht for Cc1cccc(Nc2ccccc2C(=O)O)c1C [MEFENAMIC ACID] when you can.
Response: 40.5

***
Prompt: State its Ht for this compound: Clc1c(Cl)c(Cl)c(Cl)c(Cl)c1Cl [PERCHLOROBENZENE]
Response: 43

Prompt: Specify measured Ht for C#C[C@]1(O)CC[C@H]2[C@@H]3CCC4=Cc5oncc5C[C@]4(C)[C@H]3CC[C@@]21C [DANAZOL] .
Response: 41.5

Prompt: Give the measured Ht for CN(C)[C@@H]1C(O)=C(C(N)=O)C(=O)[C@@]2(O)C(O)=C3C(=O)c4c(O)cccc4[C@@](C)(O)[C@H]3C[C@@H]12 [TETRACYCLINE]
Response: 41.6

Prompt: Kindly indicate its recorded Ht. Item: CC(=O)Nc1nnc(S(N)(=O)=O)s1 [ACETAZOLAMIDE]
Response: 40

Prompt: Quickly give me recorded Ht for CN1C(C(=O)Nc2ccccn2)=C(O)c2sc(Cl)cc2S1(=O)=O [LORNOXICAM]
Response: 41

---

As shown below, each of these molecules has a reported Ht value.
# Species: Rattus norvegicus
# PROTOCOL TEXT: Open TG-GATES - Regimen: Daily Repeat
# Assay type: toxicity, organism-based, Sprague-Dawley
# Parameters: regimen Daily Repeat, gender Male, age 6 weeks
# CONDITION SET: in vivo, po, 0 mg/kg, […], tissue Blood, route gavage, dose level Control, time 7 day
API: value field is a number in %; no unit string.

Prompt: Tell us which Ht value is on record for `CCOC(=O)[C@H](CCc1ccccc1)N[C@@H](C)C(=O)N1CCC[C@H]1C(=O)O`
Response: 41.9

Prompt: Kindly indicate its recorded Ht. Item: C1CCC(C(CC2CCCCN2)C2CCCCC2)CC1 (centres undefined) [PERHEXILINE]
Response: 38.5

Prompt: Please list Ht recorded for the molecule CC(=O)Nc1nnc(S(N)(=O)=O)s1 [ACETAZOLAMIDE]
Response: 39.7

More entries:
Prompt: Tell me Ht reported for CN1C(C(=O)Nc2ccccn2)=C(O)c2sc(Cl)cc2S1(=O)=O [LORNOXICAM]
Response: 40.8

Prompt: Look up and report measured Ht for this entry: Clc1c(Cl)c(Cl)c(Cl)c(Cl)c1Cl [PERCHLOROBENZENE]
Response: 42.4

Prompt: # return recorded Ht for entry CN(C)[C@@H]1C(O)=C(C(N)=O)C(=O)[C@@]2(O)C(O)=C3C(=O)c4c(O)cccc4[C@@](C)(O)[C@H]3C[C@@H]12 [TETRACYCLINE]
Response: 40.4

Prompt: Tell me measured Ht for C#C[C@]1(O)CC[C@H]2[C@@H]3CCC4=Cc5oncc5C[C@]4(C)[C@H]3CC[C@@]21C [DANAZOL] please.
Response: 40.8

Prompt: Supply Ht value. Item: CC(CN1c2ccccc2Sc2ccccc21)N(C)C (centres undefined) [PROMETHAZINE]
Response: 39.1

Prompt: Entry Cc1cccc(Nc2ccccc2C(=O)O)c1C [MEFENAMIC ACID] needs its Ht filled in; supply it.
Response: 39.1

---

# Species on record: Rattus norvegicus
# PROTOCOL TEXT: Open TG-GATES - Regimen: Single
# Type: toxicity, organism-based, Sprague-Dawley
# Parameters: regimen Single, gender Male, age 6 weeks
# CONDITION SET: in vivo, po, 0 mg/kg, 9 h, tissue Plasma, route gavage, dose level Control
PROPERTY NAME: Cl (meq/L)
Dear colleague, please return just the value in meq/L, with no unit written.

Prompt: Please give the documented Cl of `CCOC(=O)[C@H](CCc1ccccc1)N[C@@H](C)C(=O)N1CCC[C@H]1C(=O)O`
Response: 106.6

Prompt: Report Cl for Cc1cccc(Nc2ccccc2C(=O)O)c1C [MEFENAMIC ACID]
Response: 102.8

Prompt: Report measured Cl; entry is CC(CN1c2ccccc2Sc2ccccc21)N(C)C (stereo not given) [PROMETHAZINE]
Response: 104.6

Prompt: Supply measured Cl of C1CCC(C(CC2CCCCN2)C2CCCCC2)CC1 (stereo not given) [PERHEXILINE] in your reply.
Response: 105.6

Prompt: Respond only with Cl recorded for CC(=O)Nc1nnc(S(N)(=O)=O)s1 [ACETAZOLAMIDE]
Response: 104.8

---

# Organism: Rattus norvegicus
# PROTOCOL TEXT: Open TG-GATES - Regimen: Single
# Assay type: toxicity, organism-based, Sprague-Dawley
# Design: regimen Single, gender Male, age 6 weeks
# CONDITION SET: in vivo, po, 0 mg/kg, 9 h, tissue Plasma, route gavage, dose level Control
PROPERTY NAME: ALP
Answer format: value, then unit.

See these solved cases before continuing.
Prompt: Recall and state the measured ALP for CN(C)[C@@H]1C(O)=C(C(N)=O)C(=O)[C@@]2(O)C(O)=C3C(=O)c4c(O)cccc4[C@@](C)(O)[C@H]3C[C@@H]12 [TETRACYCLINE] .
Response: 844.2 IU/L

Prompt: Supply measured ALP of CC(CN1c2ccccc2Sc2ccccc21)N(C)C (stereo not given) [PROMETHAZINE] in your reply.
Response: 1357.2 IU/L

Prompt: Please indicate ALP recorded for COc1cc([C@@H]2c3cc4c(cc3[C@@H](O[C@@H]3O[C@@H]5CO[C@@H](C)O[C@H]5[C@H](O)[C@H]3O)[C@H]3COC(=O)[C@H]23)OCO4)cc(OC)c1O [ETOPOSIDE]
Response: 752.2 IU/L

Further cases:
Prompt: Specify ALP for CN1C(C(=O)Nc2ccccn2)=C(O)c2sc(Cl)cc2S1(=O)=O [LORNOXICAM] and stop.
Response: 766.8 IU/L

Prompt: Supply reported ALP belonging to this compound: Cc1cccc(Nc2ccccc2C(=O)O)c1C [MEFENAMIC ACID]
Response: 891.2 IU/L

Prompt: Give the measured ALP for C1CCC(C(CC2CCCCN2)C2CCCCC2)CC1 (stereo not given) [PERHEXILINE]
Response: 1422.6 IU/L

Prompt: Consider the compound Clc1c(Cl)c(Cl)c(Cl)c(Cl)c1Cl [PERCHLOROBENZENE] . State its measured ALP.
Response: 849.2 IU/L

---

# Species on record: Rattus norvegicus
# PROTOCOL TEXT: Open TG-GATES - Regimen: Daily Repeat
# Format: toxicity, organism-based, Sprague-Dawley
# Set-up: regimen Daily Repeat, gender Male, age 6 weeks
# CONDITION SET: in vivo, po, 0 mg/kg, […], tissue Plasma, route gavage, dose level Control, time 28 day
PROPERTY NAME: BUN

# annotated cases, reported BUN shown
Prompt: Tell me measured BUN for CC(CN1c2ccccc2Sc2ccccc21)N(C)C (stereo not drawn) please.
Response: 19.4 mg/dL

Prompt: Supply BUN value. Item: `Clc1c(Cl)c(Cl)c(Cl)c(Cl)c1Cl`
Response: 18.6 mg/dL

Prompt: Look up and report measured BUN for this entry: C1CCC(C(CC2CCCCN2)C2CCCCC2)CC1 (stereo not drawn)
Response: 17.8 mg/dL

Field: next compound
Prompt: Output BUN of `CCOC(=O)[C@H](CCc1ccccc1)N[C@@H](C)C(=O)N1CCC[C@H]1C(=O)O`
Response: 19.2 mg/dL

The origin of these recorded values is ChEMBL document CHEMBL3885861.
